Listing: log10 of IC50 of selected compounds
Biological target: Sodium/glucose cotransporter 2 (Homo sapiens, UniProt P31639)
Sequence (P31639 whole entry): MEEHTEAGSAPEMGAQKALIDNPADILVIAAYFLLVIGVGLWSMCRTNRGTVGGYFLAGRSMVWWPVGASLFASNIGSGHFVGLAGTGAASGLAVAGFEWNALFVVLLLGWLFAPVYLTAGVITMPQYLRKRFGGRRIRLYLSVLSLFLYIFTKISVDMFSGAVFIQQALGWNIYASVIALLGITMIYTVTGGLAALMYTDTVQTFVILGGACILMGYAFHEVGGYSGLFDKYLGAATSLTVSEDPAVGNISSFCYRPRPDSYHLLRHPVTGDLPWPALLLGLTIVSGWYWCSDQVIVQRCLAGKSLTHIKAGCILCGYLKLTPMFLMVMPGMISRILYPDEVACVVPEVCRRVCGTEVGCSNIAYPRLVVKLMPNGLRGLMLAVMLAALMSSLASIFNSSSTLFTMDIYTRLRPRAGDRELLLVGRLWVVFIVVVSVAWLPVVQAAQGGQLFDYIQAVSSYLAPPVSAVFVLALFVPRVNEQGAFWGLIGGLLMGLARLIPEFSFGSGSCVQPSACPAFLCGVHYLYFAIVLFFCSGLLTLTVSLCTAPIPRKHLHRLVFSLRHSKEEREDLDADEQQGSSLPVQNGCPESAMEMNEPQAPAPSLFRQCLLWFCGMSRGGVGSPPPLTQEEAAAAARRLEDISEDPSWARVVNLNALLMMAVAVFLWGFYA
Experiment: Inhibition of human SGLT2 expressed in CHO cells assessed as inhibition of sodium-dependent methyl-alpha-D-[U-14C]glucopyranoside uptake after 2 hrs
measurement label: log10 of IC50 (log10 of the value in µM)

1. COc1ccc(Cc2cc([C@@H]3O[C@H](CO)[C@@H](OC)[C@H](O)[C@H]3O)ccc2Cl)cc1    -0.74
2. COc1ccc(Cc2cc([C@@H]3O[C@H](CO)[C@@H](O)[C@H](O)[C@H]3OC)ccc2Cl)cc1    -0.85
3. CCc1ccc(Cc2cc([C@@H]3OC4(CC4)[C@@H](O)[C@H](O)[C@H]3O)ccc2C)cc1    -2.52
4. CCc1ccc(Cc2cc([C@@H]3O[C@H](CO)[C@@H](O)[C@H](O)[C@H]3O)ccc2C)cc1    -2.82
5. COc1ccc(Cc2cc([C@@H]3OC4(COC4)[C@@H](O)[C@H](O)[C@H]3O)ccc2C)cc1    -2.18
6. CCc1ccc(Cc2cc([C@@H]3OC4(CNC4)[C@@H](O)[C@H](O)[C@H]3O)ccc2C)cc1    0.71
7. COc1ccc(Cc2cc([C@@H]3O[C@H](CF)[C@@H](O)[C@H](O)[C@H]3O)ccc2Cl)cc1    -2.29
8. COc1ccc(Cc2cc([C@@H]3OC4(COC4)[C@@H](O)[C@H](O)[C@H]3O)ccc2Cl)cc1    -1.64
